Tested on: Huh7/Rep-Feo cells
procedure-details: Primary HTS cell viability counter-screen (CellTiterGlo)
Format: cell-based, human
measurement-conditions: Table 2 antiviral hits of DOS set; approximately 10-50 μM, most at 33 μM; 48 hours
recorded-metric: C-CompZ, compositeZ score for cell viability assay
One number for each entry.

# count of solved cases: 5
# compound, measured-value
data = [
    ("C=CC[C@@H]1C=C[C@H](O/N=C2/[C@H]3CCn4c(=O)n(-c5ccccc5)c(=O)n4[C@H]3[C@H](O)[C@@H]3O[C@H]23)[C@@H](CO)O1", 1.1731),
    ("O=C1C2C=C(Br)C(CC2OCCCCCCO)[C@@]12CO2 (stereo partly drawn)", 0.9925),
    ("O=C1C2C=C(I)C(CC2OCCCCCCO)[C@@]12CO2 (stereo partly drawn)", 0.5666),
    ("CC(=O)OC[C@H]1O[C@@H](O/N=C2/[C@H]3CCn4c(=O)n(-c5ccccc5)c(=O)n4[C@H]3[C@H](O)[C@@H]3O[C@H]23)[C@H](OC(C)=O)[C@@H](OC(C)=O)[C@@H]1OC(C)=O", 1.0278),
    ("CC[C@@H](c1ccccc1)n1c(=O)n2n(c1=O)[C@H]1[C@H](O)[C@@H]3O[C@@H]3/C(=N\\OC[C@@H](O)COCc3ccco3)[C@H]1CC2", 0.4558),
]

Alright, here's another compound for you.
Endpoint output: C-CompZ, compositeZ score for cell viability assay of "C[C@@H](O/N=C1/[C@H]2CCn3c(=O)n(-c4ccccc4)c(=O)n3[C@H]2[C@H](O)[C@@H]2O[C@H]12)c1cn([C@H](CO)Cc2ccccc2)nn1" . Value? 1.128

* * *

Tested on: Huh7/Rep-Feo HCV replicon (HCV RNA replication)
Assay type: cell-based, Hepatitis C virus (strain HCV—N, genotype 1b)
measurement-conditions: Table 2 antiviral hits of DOS set; approximately 10-50 μM, most at 33 μM; 48 hours
Label criterion met when R-CompZ, compositeZ score for reporter gene assay is strictly below -3; at or above that, label criterion not met.

// known answers, use as guide
# compound, group
rows = [
    ("O=C1C2(CO)C=C(Br)C(CC2c2ccccc2)[C@@]12CO2 (stereo partly shown)", "criterion met"),
    ("COc1ccc(O[C@H]2C=C[C@@H](c3ccccc3)O[C@@H]2CO/N=C(\\C)CCN2CCc3nc(-c4ccccc4)c(-c4ccccc4)cc3C2)cc1", "criterion met"),
    ("C#CCCCO/N=C1/[C@H]2CCn3c(=O)n([C@@H](CC)c4ccccc4)c(=O)n3[C@H]2[C@H](O)[C@@H]2O[C@H]12", "criterion met"),
]

Does the reported R-CompZ, compositeZ score for reporter gene assay of O=C1C2C=C(I)C(CC2OCCCCO)[C@@]12CO2 (stereo partly shown) stay below -3? criterion not met

Does the reported R-CompZ, compositeZ score for reporter gene assay of O=C1C2C=C(I)C(CC2c2ccccc2)[C@@]12CO2 (stereo partly shown) stay below -3? criterion met

Does the reported R-CompZ, compositeZ score for reporter gene assay of "C[C@@]12COC[C@]13C=C(Br)C(C2)[C@@]1(CO1)C3=O" stay below -3? criterion not met

* * *

Tested on: OR6 cells
procedure-details: Secondary assay cell viability (CellTiter-Glo)
measurement-conditions: 48 hours
recorded-metric: concentrations at which cytotoxic effects were exhibited

# compound, subject-of-test, measured-value
measured = [
    ("Cc1cc2c(nc1C)CCCN2CC(C)O/N=C1/[C@H]2CCn3c(=O)n(-c4ccccc4)c(=O)n3[C@H]2[C@H](O)[C@@H]2O[C@H]12 (stereo partly shown)", "OR6 cells", "≥ 30 µM"),
]

Alright, here's another compound for you.
Endpoint output: concentrations at which cytotoxic effects were exhibited of Cc1c(C)c2c(c(C)c1O)CCC(C)(COc1ccc(CC3SC(=O)NC3=O)cc1)O2 (stereo not shown) . Value? ≥ 50 µM
